Hi there, I'd appreciate the recorded IC50 for every entry that follows.
Biological target: Recombinant wild type LRRK2 protein (Homo sapiens (Human), UniProt Q5S007)
Sequence (Q5S007 whole entry): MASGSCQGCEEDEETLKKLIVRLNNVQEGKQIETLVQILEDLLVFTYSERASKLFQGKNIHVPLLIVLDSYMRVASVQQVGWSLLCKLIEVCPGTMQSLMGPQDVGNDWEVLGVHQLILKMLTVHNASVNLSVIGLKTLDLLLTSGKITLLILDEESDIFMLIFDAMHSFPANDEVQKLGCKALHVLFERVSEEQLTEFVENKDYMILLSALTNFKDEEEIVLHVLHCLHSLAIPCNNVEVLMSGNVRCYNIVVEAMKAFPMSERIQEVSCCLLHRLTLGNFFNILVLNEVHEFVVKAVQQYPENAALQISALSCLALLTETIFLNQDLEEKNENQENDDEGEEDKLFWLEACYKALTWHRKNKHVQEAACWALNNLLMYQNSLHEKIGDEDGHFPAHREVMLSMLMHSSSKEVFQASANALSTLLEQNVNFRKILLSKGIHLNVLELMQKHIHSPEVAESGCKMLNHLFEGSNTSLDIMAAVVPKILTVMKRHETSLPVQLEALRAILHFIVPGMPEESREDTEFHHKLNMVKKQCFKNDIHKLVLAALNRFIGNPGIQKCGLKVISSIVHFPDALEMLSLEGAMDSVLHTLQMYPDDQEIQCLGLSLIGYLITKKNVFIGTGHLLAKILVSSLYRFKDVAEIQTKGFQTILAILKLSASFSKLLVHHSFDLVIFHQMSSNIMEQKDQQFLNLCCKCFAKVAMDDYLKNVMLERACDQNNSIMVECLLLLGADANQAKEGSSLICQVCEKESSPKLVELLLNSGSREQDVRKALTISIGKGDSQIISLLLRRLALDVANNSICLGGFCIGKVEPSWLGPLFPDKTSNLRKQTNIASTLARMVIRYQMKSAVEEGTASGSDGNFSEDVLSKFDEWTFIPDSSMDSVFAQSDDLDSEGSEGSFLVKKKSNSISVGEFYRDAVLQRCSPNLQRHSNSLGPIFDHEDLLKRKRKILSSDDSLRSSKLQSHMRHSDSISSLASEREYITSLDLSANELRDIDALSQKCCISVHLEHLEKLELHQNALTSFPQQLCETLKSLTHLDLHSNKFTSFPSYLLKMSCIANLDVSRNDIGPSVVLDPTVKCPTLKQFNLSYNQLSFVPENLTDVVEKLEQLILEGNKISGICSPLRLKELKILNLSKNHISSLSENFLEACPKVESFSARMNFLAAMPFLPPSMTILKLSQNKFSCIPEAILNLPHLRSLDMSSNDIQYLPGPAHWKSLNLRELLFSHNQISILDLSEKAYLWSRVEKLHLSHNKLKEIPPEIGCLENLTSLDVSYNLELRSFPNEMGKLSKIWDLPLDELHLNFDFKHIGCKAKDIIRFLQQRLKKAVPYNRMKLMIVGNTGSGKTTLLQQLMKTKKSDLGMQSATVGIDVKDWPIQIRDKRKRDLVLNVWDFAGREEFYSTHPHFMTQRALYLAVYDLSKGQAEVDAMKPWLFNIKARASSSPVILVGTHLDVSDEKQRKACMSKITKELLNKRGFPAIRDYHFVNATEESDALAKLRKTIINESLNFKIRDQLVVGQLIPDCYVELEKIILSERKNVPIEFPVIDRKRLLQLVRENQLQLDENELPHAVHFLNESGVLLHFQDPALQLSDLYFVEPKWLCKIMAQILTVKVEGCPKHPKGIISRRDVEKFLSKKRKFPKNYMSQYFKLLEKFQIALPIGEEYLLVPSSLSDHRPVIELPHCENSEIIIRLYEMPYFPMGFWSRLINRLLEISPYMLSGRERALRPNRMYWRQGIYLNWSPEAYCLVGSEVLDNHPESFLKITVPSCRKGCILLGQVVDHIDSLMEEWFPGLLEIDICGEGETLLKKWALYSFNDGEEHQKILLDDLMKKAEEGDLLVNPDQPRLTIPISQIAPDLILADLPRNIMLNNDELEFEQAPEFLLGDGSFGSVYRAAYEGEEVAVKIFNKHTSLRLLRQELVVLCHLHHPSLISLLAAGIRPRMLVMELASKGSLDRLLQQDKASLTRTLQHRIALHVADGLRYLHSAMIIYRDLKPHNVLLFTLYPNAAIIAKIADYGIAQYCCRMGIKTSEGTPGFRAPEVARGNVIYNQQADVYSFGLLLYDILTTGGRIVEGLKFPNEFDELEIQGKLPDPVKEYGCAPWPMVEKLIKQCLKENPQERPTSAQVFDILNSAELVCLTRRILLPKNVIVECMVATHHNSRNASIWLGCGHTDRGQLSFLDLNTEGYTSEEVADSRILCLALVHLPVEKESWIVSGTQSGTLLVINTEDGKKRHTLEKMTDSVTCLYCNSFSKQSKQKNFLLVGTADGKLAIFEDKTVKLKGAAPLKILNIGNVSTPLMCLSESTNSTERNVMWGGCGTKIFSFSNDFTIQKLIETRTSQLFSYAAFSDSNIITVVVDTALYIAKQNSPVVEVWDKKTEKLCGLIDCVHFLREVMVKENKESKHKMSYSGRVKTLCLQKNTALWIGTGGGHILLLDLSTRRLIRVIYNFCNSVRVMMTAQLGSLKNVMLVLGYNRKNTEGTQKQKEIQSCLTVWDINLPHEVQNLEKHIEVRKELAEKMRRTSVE
Assay: LRRK2 kinase activity, LanthaScreen TR-FRET assay (wild type)
Conditions: LRRKtide 400 nM, 25 μM ATP, 60 min; read-out: LRRK2 WT IC50

Result for Cc1cc(C#N)cnc1C(=O)Nc1ccc2[nH]nc(-c3ccc(OC(C)C)nc3)c2c1 , tested on Recombinant wild type LRRK2 protein (Homo sapiens (Human), UniProt Q5S007), IC50: 100 to 1000 nM

Response field IC50 (Recombinant wild type LRRK2 protein (Homo sapiens (Human), UniProt Q5S007)) for item Cc1ccc(-c2n[nH]c3ccc(NC(=O)c4ncc(C#N)cc4C)cc23)cn1 : 100 to 1000 nM

// assay Recombinant wild type LRRK2 protein (Homo sapiens (Human), UniProt Q5S007), entry COc1cc(C#N)cnc1C(=O)Nc1ccc2[nH]nc(-c3ccoc3)c2c1 , IC50 value = 100 to 1000 nM

# lookup: Cc1nc(C(=O)Nc2ccc3[nH]nc(-c4ccoc4)c3c2)ccc1C#N on Recombinant wild type LRRK2 protein (Homo sapiens (Human), UniProt Q5S007), IC50 = 100 to 1000 nM

// returns IC50 for Cc1c(C#N)cnc(C(=O)Nc2ccc3[nH]nc(-c4ccoc4)c3c2)c1C with Recombinant wild type LRRK2 protein (Homo sapiens (Human), UniProt Q5S007); value = < 100 nM

Measured IC50 for this entry Cc1c(C(=O)Nc2ccc3[nH]nc(C4CC4)c3c2)nc(C(F)F)c(C#N)c1C on Recombinant wild type LRRK2 protein (Homo sapiens (Human), UniProt Q5S007): < 100 nM

Query Cn1cc(C#N)cc1C(=O)Nc1ccc2[nH]nc(-c3cnoc3)c2c1 on Recombinant wild type LRRK2 protein (Homo sapiens (Human), UniProt Q5S007); IC50 returned: < 100 nM

The value of IC50 recorded for Cc1cc(C#N)cnc1C(=O)Nc1ccc2[nH]nc(-c3ccco3)c2c1 when tested on Recombinant wild type LRRK2 protein (Homo sapiens (Human), UniProt Q5S007) reads 100 to 1000 nM

###

Biological target: Recombinant G2019S-LRRK2 protein (Homo sapiens (Human), UniProt Q5S007, G2019S)
Sequence (Q5S007 whole entry G2019S): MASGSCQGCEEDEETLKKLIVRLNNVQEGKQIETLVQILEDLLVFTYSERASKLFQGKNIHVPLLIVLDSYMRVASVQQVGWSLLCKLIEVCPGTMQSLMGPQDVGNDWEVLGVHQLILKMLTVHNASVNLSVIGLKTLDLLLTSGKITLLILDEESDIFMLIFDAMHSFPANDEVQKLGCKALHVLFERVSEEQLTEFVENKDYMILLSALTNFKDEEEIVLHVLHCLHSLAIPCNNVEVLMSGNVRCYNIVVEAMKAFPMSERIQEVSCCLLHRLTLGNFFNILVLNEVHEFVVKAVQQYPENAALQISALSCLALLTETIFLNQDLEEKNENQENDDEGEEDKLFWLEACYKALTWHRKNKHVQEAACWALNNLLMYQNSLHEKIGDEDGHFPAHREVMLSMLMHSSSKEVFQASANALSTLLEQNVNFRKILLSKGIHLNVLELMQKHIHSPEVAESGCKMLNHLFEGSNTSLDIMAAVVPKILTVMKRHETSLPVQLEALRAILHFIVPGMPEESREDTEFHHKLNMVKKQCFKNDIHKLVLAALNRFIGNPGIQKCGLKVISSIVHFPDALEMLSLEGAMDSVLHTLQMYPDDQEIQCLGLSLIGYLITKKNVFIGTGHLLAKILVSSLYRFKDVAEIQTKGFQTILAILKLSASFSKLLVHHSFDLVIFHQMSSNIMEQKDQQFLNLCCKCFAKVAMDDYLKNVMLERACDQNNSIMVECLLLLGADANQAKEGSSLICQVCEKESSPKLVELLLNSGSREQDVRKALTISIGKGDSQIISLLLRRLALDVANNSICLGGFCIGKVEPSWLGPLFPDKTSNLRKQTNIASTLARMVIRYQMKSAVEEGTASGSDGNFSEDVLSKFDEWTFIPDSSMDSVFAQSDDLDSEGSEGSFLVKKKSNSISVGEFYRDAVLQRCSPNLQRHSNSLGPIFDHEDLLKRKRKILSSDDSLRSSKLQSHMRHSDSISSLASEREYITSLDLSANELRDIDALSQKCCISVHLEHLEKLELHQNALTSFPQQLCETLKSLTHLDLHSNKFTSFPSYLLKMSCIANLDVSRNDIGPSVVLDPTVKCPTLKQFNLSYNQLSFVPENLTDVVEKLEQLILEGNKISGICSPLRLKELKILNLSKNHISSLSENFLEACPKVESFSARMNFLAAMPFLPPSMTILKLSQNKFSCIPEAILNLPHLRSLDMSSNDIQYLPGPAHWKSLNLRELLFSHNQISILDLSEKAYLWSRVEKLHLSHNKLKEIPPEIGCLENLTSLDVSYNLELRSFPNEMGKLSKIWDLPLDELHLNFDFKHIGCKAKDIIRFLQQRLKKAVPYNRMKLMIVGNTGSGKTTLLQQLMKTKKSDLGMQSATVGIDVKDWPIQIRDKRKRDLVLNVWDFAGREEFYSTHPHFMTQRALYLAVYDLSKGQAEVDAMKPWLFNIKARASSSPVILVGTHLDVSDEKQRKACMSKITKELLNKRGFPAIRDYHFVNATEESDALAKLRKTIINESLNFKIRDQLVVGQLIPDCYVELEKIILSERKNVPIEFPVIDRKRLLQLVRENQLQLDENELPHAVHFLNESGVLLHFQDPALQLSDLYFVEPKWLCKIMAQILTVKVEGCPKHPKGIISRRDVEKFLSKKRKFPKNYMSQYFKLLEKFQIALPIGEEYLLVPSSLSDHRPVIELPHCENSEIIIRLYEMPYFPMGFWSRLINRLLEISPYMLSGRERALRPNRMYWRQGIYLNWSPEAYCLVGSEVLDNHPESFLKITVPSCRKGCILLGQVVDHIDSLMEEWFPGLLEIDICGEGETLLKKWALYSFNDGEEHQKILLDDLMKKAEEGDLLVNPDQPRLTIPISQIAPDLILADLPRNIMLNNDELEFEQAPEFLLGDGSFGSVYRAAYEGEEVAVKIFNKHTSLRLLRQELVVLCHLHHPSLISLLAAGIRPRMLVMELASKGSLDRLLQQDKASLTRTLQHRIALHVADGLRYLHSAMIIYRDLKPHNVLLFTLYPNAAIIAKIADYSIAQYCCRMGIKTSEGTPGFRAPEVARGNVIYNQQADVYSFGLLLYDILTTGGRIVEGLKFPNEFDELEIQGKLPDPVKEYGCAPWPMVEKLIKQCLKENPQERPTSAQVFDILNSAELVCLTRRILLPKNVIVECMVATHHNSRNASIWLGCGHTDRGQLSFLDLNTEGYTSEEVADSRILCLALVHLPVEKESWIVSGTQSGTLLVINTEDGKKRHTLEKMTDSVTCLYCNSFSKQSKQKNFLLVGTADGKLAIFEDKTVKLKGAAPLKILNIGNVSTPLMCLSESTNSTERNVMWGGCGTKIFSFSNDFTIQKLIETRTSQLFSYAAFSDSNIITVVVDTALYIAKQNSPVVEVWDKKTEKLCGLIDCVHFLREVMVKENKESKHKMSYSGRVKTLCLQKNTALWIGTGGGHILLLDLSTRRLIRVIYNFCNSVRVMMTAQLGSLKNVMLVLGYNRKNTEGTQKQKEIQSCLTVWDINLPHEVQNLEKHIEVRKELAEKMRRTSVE
Assay: LRRK2 kinase activity, LanthaScreen TR-FRET assay (G2019S)
Details: LRRKtide 400 nM, 25 μM ATP, 60 min
Please respond with reported IC50 for every item in the list.

Entry Cc1cc(-c2n[nH]c3ccc(NC(=O)c4ncc(C#N)c(C)c4C)cc23)cc(C)n1 ; assay system Recombinant G2019S-LRRK2 protein (Homo sapiens (Human), UniProt Q5S007, G2019S); IC50 recorded at < 100 nM

Form field IC50 for item Cc1c(C#N)cnc(C(=O)Nc2ccc3[nH]nc(C=C4CCOCC4)c3c2)c1C on Recombinant G2019S-LRRK2 protein (Homo sapiens (Human), UniProt Q5S007, G2019S): 1000 to 10000 nM

Observed IC50, Recombinant G2019S-LRRK2 protein (Homo sapiens (Human), UniProt Q5S007, G2019S), Cc1c(C#N)cnc(C(=O)Nc2ccc3[nH]nc(/C=C/C4CC4)c3c2)c1C : < 100 nM

Form field, IC50 with Recombinant G2019S-LRRK2 protein (Homo sapiens (Human), UniProt Q5S007, G2019S), item Cc1cc(C#N)cnc1C(=O)Nc1ccc2[nH]nc(OCc3ccccc3)c2c1 : < 100 nM
